Read-out: Urokinase-type plasminogen activator receptor (uPAR), PLAUR (gene 5329)
Assay: BSK_BE3C_uPAR: BioMAP Diversity Plus: BE3C Assay for Urokinase-type plasminogen activator receptor (uPAR) Biomarker Activity (AID 2283039)
Conditions: primary human bronchial epithelial cells; actives raise or lower the signal
The source made the active and inactive calls. Rule for the calls: active = hit-call score of the fitted dose curve at least 0.9, where 1 is the maximum; inactive = score below 0.9.
Outcomes you can answer with include only these: True = active, False = inactive

[Q] Status in this test for Nc1ccc2ccccc2c1 ?
[A] False

[Q] Quick one: c1ccc(OP(Oc2ccccc2)Oc2ccccc2)cc1
[A] False

[Q] Please give the result for Cc1c([N+](=O)[O-])cc2c(c1[N+](=O)[O-])C(C)(C)CC2(C)C too.
[A] True

[Q] Also c1ccc2c(c1)Nc1ccccc1S2 ?
[A] False

[Q] Query OCC1CO1 (stereo not drawn) next
[A] False

[Q] Please give the result for N#Cc1cc([N+](=O)[O-])ccc1N too.
[A] False

[Q] Proceed to O=[N+]([O-])c1ccccc1
[A] False

[Q] What do you have for CCOP(=S)(Oc1ccc([N+](=O)[O-])cc1)c1ccccc1 (stereo not drawn) ?
[A] False

[Q] Try this compound too: C=CC(=O)OCC(CC)(COC(=O)C=C)COC(=O)C=C
[A] True

[Q] Now consider Cc1ccc2c(c1N)C(=O)c1ccccc1C2=O .
[A] False

[Q] Item: COCCOCCO
[A] False

[Q] Same again, this time with FC(F)(F)C(F)(C(F)(F)F)C(F)(F)C(F)(F)CC1CO1 (stereo not drawn)
[A] False

[Q] Queued: CCOc1ccc(C(C)(C)COCc2cccc(Oc3ccccc3)c2)cc1
[A] False

[Q] How about this compound: O=C(O)C(F)(F)OC(F)(F)C(F)(F)OC(F)(F)C(=O)O
[A] False

[Q] Item: O=C(O)C(F)(OC(F)(F)C(F)(F)C(F)(F)F)C(F)(F)F (stereo not drawn)
[A] False

[Q] Do the same for CCCCN(CCCC)SN(C)C(=O)Oc1cccc2c1OC(C)(C)C2 please
[A] False

[Q] Another compound to check: O=c1ssc(Cl)c1Cl
[A] True

[Q] Check c1cc2c3c(cccc3c1)CC2 too.
[A] False

[Q] Next entry: CC(C)(C)OOC(C)(C)C
[A] False

[Q] Could you do the same for OCC(F)(F)OC(F)(F)C(F)(F)OC(F)(F)C(F)(F)OC(F)(F)CO , please?
[A] False

[Q] Also check CCCCc1ccccc1
[A] False

[Q] And the next one, CCCCN(CCCC)N=O ?
[A] False

[Q] Also CC(Cl)CN(C)C (stereo not drawn) , if possible.
[A] False

[Q] What about CCNc1nc(Cl)nc(NC(C)(C)C)n1 ?
[A] False

[Q] Note, next up: ClC(Cl)(Cl)c1ccccc1
[A] False

[Q] Input CCOP(=S)(OCC)SCn1nnc2ccccc2c1=O
[A] False

[Q] Similarly, CC(O)C(F)(F)C(F)(F)F (stereo not drawn) ?
[A] False

[Q] Could you do the same for OCC(F)(F)OC(F)(F)C(F)(F)OC(F)(F)C(F)(F)OC(F)(F)F , please?
[A] False

[Q] Now consider CCCCCCCc1ccc(O)cc1 and answer again.
[A] True

[Q] Again, but for O=P1(N(CCCl)CCCl)NCCCO1 (stereo not drawn)
[A] False

[Q] // query: O=P(OCC(Br)CBr)(OCC(Br)CBr)OCC(Br)CBr (stereo not drawn)
[A] False

[Q] What do you have for COP(N)(=S)OC ?
[A] False

[Q] Can you handle ClC(Cl)c1ccccc1 next?
[A] False
